Tested on: UACC-62 melanoma
Run Description: NCI-60 one-dose screen, 48 h (100 = growth as untreated, 0 = no growth, -100 = all killed)
Condition Info: 10 µM unless noted
This is part of a sample that, as a whole, favours compounds with a hit. Of some 83,000 tested, about 20% had one in any assay.
Measured Quantity: growth (%)
Numbers only, in %.

# count of solved cases: 8
1) CCCC/C(CC)=N\NS(=O)(=O)c1ccc([N+](=O)[O-])cc1; 98.5
2) CCN1C(=S)N(c2ccccc2)C2NC(=S)N(/N=C/C=C/c3ccccc3OC)C21 (centres undefined); 25.7
3) C=CCn1c(SCC(=O)Nc2ccc(C(=O)/C=C/c3ccc(Cl)cc3)cc2)nnc1-c1ccc(Br)cc1; 71
4) COc1ccc(C(O)c2cc3c(N)c(C(=O)Nc4cccc(Br)c4)sc3nc2C)cc1 (centres undefined); 13.5
5) CN(C)c1ccc(-c2c(C#N)c(N)nn2C(=O)c2ccc(NC(=O)c3ccccn3)cc2)cc1; 73.2
6) N=C(N)c1ccc(-c2ccc(-c3ccc(Cl)cc3Cl)s2)cc1; 74.8
7) Cc1ccc(Nn2c(SCC(=O)Nc3nc(-c4ccccc4)cs3)nc(C)c2C)cc1; 51.8
8) O=CN1N=C(c2cccc(Nc3ccnc4cc(Cl)ccc34)c2)CC1c1ccccc1 (centres undefined); 34.7

-- ask Reported growth for `CCCCn1c(=O)[nH]c(N)c([C@@H]2c3c([nH]c(=O)n(CCCC)c3=O)Oc3ccc4ccccc4c32)c1=O` : what is it?
-- reply 80.1

---

Test system: IGROV1 ovarian
Run Description: NCI-60 one-dose screen, 48 h (100 = growth as untreated, 0 = no growth, -100 = all killed)
Condition Info: 10 µM unless noted
The panel holds about 83,000 compounds, 20% with a hit somewhere; the sample as a whole holds those more often.
Range-based classes on measured growth: range A: < 40%; range B: ≥ 40% and < 90%; range C: ≥ 90%

Consider the worked cases shown below.
1. Cc1[nH]c(C(=O)Nc2ccccc2OC2CCNCC2)c(Cl)c1Cl; range B
2. O=C(c1nn(-c2ccccc2)c2c1CC(NCc1ccc(F)cc1)CC2)N1CCCCC1 (stereo not drawn); range C
3. O=C(Nc1nc2ccc(C(=O)N3CCN(/C=C/c4ccccc4)CC3)cc2s1)c1ccc(NCCc2ccccc2)c([N+](=O)[O-])c1; range B
4. CCOc1ccc(NC(=O)CSc2oc(-c3ccccc3)nc2S(=O)(=O)c2ccc(C)cc2)cc1; range C
5. C=C(C)[C@@H]1CCC[C@]2(COS(=O)(=O)c3ccc(C)cc3)CC[C@]3(C)[C@@H](CC[C@@H]4[C@@]5(C)CCCNC(C)(C)[C@@H]5CC[C@]43C)[C@@H]12; range A

Now look at this entry.
-- ask Sort `Cc1cc(N2CCN(CCNc3ccnc4cc(Cl)ccc34)CC2)nc(N2CCOCC2)n1` into one of the categories.
-- reply range B

---

System: UACC-257 melanoma
Run Description: NCI-60 one-dose screen, 48 h
Condition Info: 10 µM unless noted
Experimental: Cells are grown in 96 well plates and exposed to the test compound for 48 hours. Compounds are tested at a single concentration, which is 10^-5 M for most compounds. The reported endpoint is percent growth (GI% or GIPRCNT), where numbers from 0 - 100% represent growth inhibition, and numbers from -100% - 0 represent cell death. For example, a value of 40 represents 60% growth inhibition. A value of 0 means no net growth occurred over the course of the experiment. […]
Compounds without any hit were thinned out: in the full panel of roughly 83,000, 20% have a hit. The source made the active and inactive calls. How the source made its calls: active means growth percent below 10; inactive means the rest.
I would appreciate it if you answered using one of these outcomes: active, inactive

Consider the worked cases shown below.
1) COC12C=C/C(=C(/C(=O)OCc3ccncc3)C(=O)CCCCCCCCC3(OC)C=C/C(=C(/C(=O)OCc4ccncc4)C(=O)CCCCCCCC1)O3)O2; active
2) NS(=O)(=O)c1ccc(N=Nc2c(O)n(Cc3ccccc3)c3ccc(Cl)cc23)cc1; inactive
3) NC(=O)c1c(NC(=O)c2ccc3ccccc3c2)sc2c1CCC(=O)C2; inactive

-- ask Short answer needed: outcome of this test for `C=CCN=c1sc2c(n1NC(=O)c1cc3ccc1CCc1ccc(cc1)CC3)C(=O)c1ccccc1C2=O` ?
-- reply active

Data provenance: PubChem BioAssay (NCI)
